Experimental protocol: Single-dose pharmacokinetics of ponatinib in rats
Type: in vivo, Sprague–Dawley rats
Condition description: both, Sprague-Dawley, rat, plasma, iv, 3 mg/kg
Measurement name: MRT (h)

Cc1ccc(C(=O)Nc2ccc(CN3CCN(C)CC3)c(C(F)(F)F)c2)cc1C#Cc1cnc2cccnn12; 9.77

---

Experimental protocol: Single-dose pharmacokinetics of ponatinib in rats
Format: in vivo, Sprague–Dawley rats
Condition description: both, Sprague-Dawley, rat, plasma, po, 30 mg/kg
Measurement name: MRT (h)

Cc1ccc(C(=O)Nc2ccc(CN3CCN(C)CC3)c(C(F)(F)F)c2)cc1C#Cc1cnc2cccnn12 [ponatinib, Ponatinib]; 16.5

Each recorded value in this set is attributed to paper PMC5315062.
